experimental.system: WRN [UniPro: Q14191 (WRN_HUMAN), N500-C946] (Homo sapiens (Human))
Sequence (Q14191 500-946): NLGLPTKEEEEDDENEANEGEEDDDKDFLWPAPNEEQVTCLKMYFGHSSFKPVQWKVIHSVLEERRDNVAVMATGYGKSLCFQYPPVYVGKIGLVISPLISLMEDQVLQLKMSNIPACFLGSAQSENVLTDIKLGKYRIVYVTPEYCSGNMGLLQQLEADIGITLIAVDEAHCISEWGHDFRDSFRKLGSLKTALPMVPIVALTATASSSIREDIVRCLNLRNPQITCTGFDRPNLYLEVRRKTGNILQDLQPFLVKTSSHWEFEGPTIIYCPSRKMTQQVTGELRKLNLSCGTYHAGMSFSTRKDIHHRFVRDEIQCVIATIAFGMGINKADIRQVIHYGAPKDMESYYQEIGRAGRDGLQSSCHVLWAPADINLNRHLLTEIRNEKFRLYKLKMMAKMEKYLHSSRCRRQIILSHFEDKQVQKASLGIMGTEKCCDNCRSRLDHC
protocol: WRN unwinding assay (FORKF DNA, fluorescence)
Format: biochemical
stated.conditions: Table 14
Below: a set of entries, each annotated with reported IC50.

Example results:
CCOC(=O)c1cnc2oc(C(=O)N3CCN(c4c(CC)n(CC(=O)Nc5ccc(C(F)(F)F)cc5Cl)c5nc(C6=CCOCC6)nn5c4=O)CC3)cc2c1O	100 to 1000 nM
CCc1c(N2CCN(C(=O)C(=O)Nc3nncs3)CC2)c(=O)n2nc(C3=CCOCC3)nc2n1CC(=O)Nc1ccc(C(F)(F)F)cc1F	< 100 nM

**Query** Request the reported IC50 associated with `CCc1c(N2CCN(C(=O)CNC(=O)c3ccccc3)CC2)c(=O)n2nc(C3=CCOCC3)nc2n1CC(=O)Nc1ccc(C(F)(F)F)cc1Cl`
**Result** < 100 nM

**Query** # query: IC50 of entry `CCc1c(N2CCN(C(=O)CNC(=O)c3ccc(OC)cc3)CC2)c(=O)n2nc(C3=CCOCC3)nc2n1CC(=O)Nc1ccc(C(F)(F)F)cc1Cl`
**Result** < 100 nM

**Query** Which value of IC50 has been reported for `CCc1c(N2CCN(C(=O)CNC(=O)c3ccccc3F)CC2)c(=O)n2nc(N3Cc4cnn(C)c4C3)nc2n1CC(=O)Nc1cc(C)cs1` in the records?
**Result** < 100 nM

**Query** Endpoint output: IC50 of `CCc1c(N2CCN(C(=O)c3ccc[nH]c3=O)CC2)c(=O)n2nc(C3=CCOCC3)nc2n1CC(=O)Nc1ccc(C(F)(F)F)cc1Cl` . Value?
**Result** 100 to 1000 nM

---

experimental.system: WRN [UniPro: Q14191 (WRN_HUMAN), N500-C946] (Homo sapiens (Human))
protocol: WRN ATPase assay (ADP-Glo)
Format: biochemical
stated.conditions: WRN enzymatic activity assay
outcome.measure: IC50

Answered examples (5):
CCc1c(N2CCN(C(=O)CNC(=O)c3ccccc3)CC2)c(=O)n2nc(N3CCc4ncccc43)nc2n1CC(=O)Nc1ccc(C(F)(F)F)cc1Cl [Example 234]	100 to 1000 nM
CCc1c(N2CCN(C(=O)c3ncc4ncsc4c3O)CC2)c(=O)n2nc(C3=CCOCC3)nc2n1CC(=O)Nc1ccc(C(F)(F)F)cc1Cl [Example 195]	< 100 nM
CCc1c(N2CCN(C(=O)c3cccc(=O)[nH]3)CC2)c(=O)n2nc(C3=CCOCC3)nc2n1CC(=O)Nc1ccc(C(F)(F)F)cc1Cl [Example 78]	< 100 nM
CCc1c(N2CCN(C(=O)c3ccn4nc(C)cc4c3O)CC2)c(=O)n2nc(C3=CCOCC3)nc2n1CC(=O)Nc1ccc(C(F)(F)F)cc1Cl [Example 72]	< 100 nM
CCc1c(N2CCN(C(=O)c3ncc4ccccc4c3O)CC2)c(=O)n2nc(C3=CCOCC3)nc2n1CC(=O)Nc1ccc(C(F)(F)F)cc1Cl [Example 204]	< 100 nM

Here is another compound to look at.
**Query** Need IC50 of CCc1c(N2CCN(C(=O)CNC(=O)c3ccccc3F)CC2)c(=O)n2nc(C3=CCOCC3)nc2n1CC(=O)Nc1ccc(C(F)(F)F)cc1 [Example 148] , thanks.
**Result** < 100 nM

---

experimental.system: WRN [UniPro: Q14191 (WRN_HUMAN), N500-C946] (Homo sapiens (Human))
protocol: WRN ATPase assay (ADP-Glo)
Format: biochemical
stated.conditions: WRN enzymatic activity assay
pIC50: −log10 of the molar value.
outcome.measure: pIC50

Field: example entries. Status: answers known.
CCc1c(N2CCN(C(=O)CNC(=O)c3ncnc(C)c3O)CC2)c(=O)n2nc(C3=CCOCC3)nc2n1CC(=O)Nc1ccc(C(F)(F)F)cc1Cl	> 7.00
CCc1c(N2CCN(C(=O)CNC(=O)c3ccc(F)cc3F)CC2)c(=O)n2nc(C3=CCOCC3)nc2n1CC(=O)Nc1ccc(C(F)(F)F)cc1Cl	> 7.00
CCc1c(N2CCN(C(=O)CNC)CC2)c(=O)n2nc(C3=CCOCC3)nc2n1CC(=O)Nc1ccc(C(F)(F)F)cc1Cl	> 7.00
CCc1c(N2CCN(C(=O)CNC(=O)c3nc(C)ncc3O)CC2)c(=O)n2nc(C3=CCOCC3)nc2n1CC(=O)Nc1ccc(C(F)(F)F)cc1Cl	> 7.00
CCc1c(N2CCN(C(=O)c3[nH]ncc3C(F)(F)F)CC2)c(=O)n2nc(C3=CCOCC3)nc2n1CC(=O)Nc1ccc(C(F)(F)F)cc1Cl	< 6.00

**Query** Can you share its pIC50? I mean this compound: `CCc1c(N2CCN(C(=O)C(=O)Nc3ncco3)CC2)c(=O)n2nc(C3=CCOCC3)nc2n1CC(=O)Nc1ccc(C(F)(F)F)cc1F`
**Result** > 7.00

**Query** Entry `CCc1c(N2CCN(C(=O)CNC(=O)c3cc(C)on3)CC2)c(=O)n2nc(C3=CCOCC3)nc2n1CC(=O)Nc1ccc(C(F)(F)F)cc1F` has what pIC50?
**Result** > 7.00

**Query** Looking for the measured pIC50 of `CCc1c(N2CCN(C(=O)C(=O)Nc3ccccc3)CC2)c(=O)n2nc(C3=CCOCC3)nc2n1CC(=O)Nc1ccc(C(F)(F)F)cc1Cl` , can you help?
**Result** 6.00 to 7.00

**Query** // lookup pIC50 for `CCc1c(N2CCN(C(=O)CNC(=O)c3nccs3)CC2)c(=O)n2nc(N3CCOCC3)nc2n1CC(=O)Nc1ccc(C(F)(F)F)cc1Cl`
**Result** > 7.00

---

experimental.system: WRN [UniPro: Q14191 (WRN_HUMAN), N500-C946] (Homo sapiens (Human))
protocol: WRN ATPase assay (ADP-Glo)
Assay type: biochemical
stated.conditions: WRN enzymatic activity assay
Reported IC50 values follow for various compounds

Look over these answered cases.
CCc1c(N2CCN(C(=O)c3cc4c(O)ccnc4o3)CC2)c(=O)n2nc(C3=CCOCC3)nc2n1CC(=O)Nc1ccc(C(F)(F)F)cc1Cl [Example 88]	< 0.1 µM
CCc1c(N2CCN(C(=O)CNC(=O)c3ccccc3)CC2)c(=O)n2nc(N3CC4(COC4)C3)nc2n1CC(=O)Nc1ccc(C(F)(F)F)cc1Cl [Example 235]	0.1 to 1 µM

**Query** Which IC50 is listed for CCc1c(N2CCN(c3nnc(C(F)F)s3)CC2)c(=O)n2nc(C3=CCOCC3)nc2n1CC(=O)Nc1ccc(C(F)(F)F)cc1Cl [Example 8] ?
**Result** > 1 µM

---

experimental.system: WRN [UniPro: Q14191 (WRN_HUMAN), N500-C946] (Homo sapiens (Human))
protocol: WRN unwinding assay (FORKF DNA, fluorescence)
Format: biochemical
stated.conditions: Table 14
outcome.measure: IC50

Worked examples follow.
CCc1c(N2CCN(C(=O)C(=O)NC)CC2)c(=O)n2nc(C3=CCOCC3)nc2n1CC(=O)Nc1ccc(C(F)(F)F)cc1Cl	100 to 1000 nM
CCc1c(N2CCN(C(=O)CNC(=O)c3ccc(C(F)(F)F)cc3)CC2)c(=O)n2nc(C3=CCOCC3)nc2n1CC(=O)Nc1ccc(C(F)(F)F)cc1Cl	100 to 1000 nM
CCc1c(N2CCN(C(=O)CNC(=O)c3ncco3)CC2)c(=O)n2nc(C3=CCOCC3)nc2n1CC(=O)Nc1ccc(C(F)(F)F)cc1F	< 100 nM
CCc1c(N2CCN(C(=O)C(N)=O)CC2)c(=O)n2nc(C3=CCOCC3)nc2n1CC(=O)Nc1ccc(C(F)(F)F)cc1Cl	< 100 nM
CCc1c(N2CCN(C(=O)c3cnn4cccc4c3O)CC2)c(=O)n2nc(C3=CCOCC3)nc2n1CC(=O)Nc1sc(C)cc1C	< 100 nM

**Query** Endpoint output: IC50 of `CCc1c(N2CCN(C(=O)C(=O)Nc3nc(C)co3)CC2)c(=O)n2nc(C3=CCOCC3)nc2n1CC(=O)Nc1ccc(C(F)(F)F)cc1Cl` . Value?
**Result** < 100 nM

**Query** # get_value(readout='IC50', item= `CCc1c(N2CCN(C(=O)c3ncnc4c(Cl)c[nH]c34)CC2)c(=O)n2nc(C3=CCOCC3)nc2n1CC(=O)Nc1ccc(C(F)(F)F)cc1Cl` )
**Result** 100 to 1000 nM

---

experimental.system: WRN [UniPro: Q14191 (WRN_HUMAN), N500-C946] (Homo sapiens (Human))
protocol: WRN unwinding assay (FORKF DNA, fluorescence)
Format: biochemical
stated.conditions: Table 14
Recorded IC50 values for a group of molecules are listed next.

# count of solved cases: 5
CCc1c(N2CCN(C(=O)CNC(=O)c3cc(N)c(F)cc3F)CC2)c(=O)n2nc(C3=CCOCC3)nc2n1CC(=O)Nc1ccc(C(F)(F)F)cc1Cl	100 to 1000 nM
CCc1c(N2CCN(C(=O)CNC(=O)c3ccccc3)CC2)c(=O)n2nc(N3CCc4ncccc43)nc2n1CC(=O)Nc1ccc(C(F)(F)F)cc1Cl	< 100 nM
CCc1c(N2CCN(C(=O)CNC(=O)c3cnn4cccc4c3O)CC2)c(=O)n2nc(C3=CCOCC3)nc2n1CC(=O)Nc1ccc(C(F)(F)F)cc1Cl	< 100 nM
CCc1c(N2CCN(C(=O)CNC(=O)c3ccnc(O)c3)CC2)c(=O)n2nc(C3=CCOCC3)nc2n1CC(=O)Nc1ccc(C(F)(F)F)cc1Cl	< 100 nM
CCc1c(N2CCN(C(=O)CNC(=O)c3cc(OC)ccc3F)CC2)c(=O)n2nc(C3=CCOCC3)nc2n1CC(=O)Nc1ccc(C(F)(F)F)cc1Cl	< 100 nM

# input for lookup
**Query** Find the recorded IC50 belonging to `CCc1c(N2CCN(C(=O)c3n[nH]cc(C)c3=O)CC2)c(=O)n2nc(C3=CCOCC3)nc2n1CC(=O)Nc1ccc(C(F)(F)F)cc1Cl` and report it.
**Result** < 100 nM
